- System: K4 kissing-loop RNA reporter;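 note: bound reporter read as fluorescence of individual clusters on recovered sequencing chips by microscopy, with normalized cluster intensities fitted with a binding model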
- TEST SUMMARY: apparent KD of K4 kissing-loop reporter; higher = weaker reporter binding
- STATED CONDITIONS: Eterna round: R107; input ligand: none
RECORDED METRIC: apparent KD of K4 kissing-loop reporter
Record the result as a number with its unit.

UUAGGAGUGGAAGGAUAUCCUGGUGUGGGUGAUGUUAGUGAUGUUGAAAGUGCAGUGAUGUUGCGCGGAGAAGGUCCGGUGUUGA [BDazzled - #7 - Exc. FMN B]
173 nM
CACGAUGAAUUCUCUAGGAGUGAUGUUUUUCGAGGACCGGUACGGCCGCCACUCGGACGACGAGCGUGGUAGCGGCGUGAAGACU [zamullin]
625 nM
AAUACGUUCACGGCCGCCACUGAAUAAUUGGUAAGUAGUGAUGUUACUUUACAUAUCUUAUUUAACAGGACCGGGUGAUCGUUUA [JR_Nu_ExcTryptoB_Sub028]
122 nM
AAAAUAAUCCAGUGAUGUUGGUAUCCAGAUACCAGCCAGGAAACUGGCCCUUGGCAGCUGUGGACGUACAAAAUAAGUACGUCCU [#OpenEnded 10 #StaticStem #K4Early]
464 nM

// query apparent KD of K4 kissing-loop reporter value for entry UUUAUAAGGUCGGCCGCCACUGGAUUUAUGUUUGUUUCGUCUGGAUCAAAGUGAUGUUUUGAGUCCAGGACCGGGACAUUUGUUA [whbob_Ex_Tryp_B_w39]
79.3 nM
